Data origin: the supplement of paper PMC4954754

Tested on: HEK293T-Rex XBP1-RLuc
Assay: EC50 for XBP1-RLuc reporter activation
Settings: 18 h
Listed below: EC50 for XBP1-RLuc reporter activation values for each entry.
measurement_label: EC50 for XBP1-RLuc reporter activation

molecule: CCOc1cc(/C=C2/NC(=O)N(c3cccc(Cl)c3)C2=O)ccc1O
measurement: 11.9 µM
--
molecule: C(=C\c1ccccc1)/C=N/Nc1nc2ccccc2[nH]1
measurement: > 18 µM
--
molecule: CCOc1ccc(NC(=O)c2ccc3c(c2)OCO3)c([N+](=O)[O-])c1
measurement: > 18.6 µM
--
molecule: O=C(c1ccccc1)c1c(O)ccc2c(C(=O)c3ccccc3)c(O)ccc12
measurement: > 12.5 µM
--
molecule: CCCNC(=O)c1cc(-c2cccs2)on1
measurement: > 16.9 µM
--
molecule: CN(C)c1ccc(C2C(C#N)=C(N)Oc3c2sc2ccccc32)cc1[N+](=O)[O-] (configuration not stated)
measurement: > 17.2 µM
--
molecule: CN(C)c1ccc(-c2nc3ccc(N)cc3[nH]2)cc1
measurement: > 15.6 µM
--
molecule: Oc1ccc(/C=N/Nc2cccc(Cl)n2)c(O)c1
measurement: > 16.9 µM
--
molecule: CCCCCOc1ccc(N/C(N)=N/c2nc(C)cc(C)n2)cc1
measurement: 4.05 µM
--
molecule: Cc1ccc(O)c(-c2cc(-c3cccs3)[nH]n2)c1
measurement: > 18.9 µM
--
molecule: Nc1ccc2nc(-c3cc(Cl)c(N)c(Cl)c3)[nH]c2c1
measurement: > 13 µM
--
molecule: N#Cc1c(NC(=O)c2ccc3c(c2)OCO3)sc2c1CCCC2
measurement: > 16.9 µM
--
molecule: Cc1cc(C)nc(Nc2nc(-c3ccc(O)c(O)c3)cs2)n1
measurement: 14.1 µM
--
molecule: CC(=O)Oc1cc(N2CCOCC2)c(OC(C)=O)c2c1C(=O)c1ccccc1C2=O
measurement: > 16.9 µM
--
molecule: Oc1ccccc1/C=N\Nc1nc2ccccc2o1
measurement: > 17.3 µM
--
molecule: Cc1ccc2c(N)c(C(=O)c3ccc4c(c3)OCO4)sc2n1
measurement: > 16.9 µM
--
molecule: COc1ccc(NC(=O)/C(Cl)=C\c2ccccc2)cc1
measurement: > 16.9 µM
--
molecule: CN(C)c1ccc(C(=NO)c2ccc(N(C)C)cc2)cc1
measurement: > 17.1 µM
--
molecule: O=C(/C=C/c1ccco1)Nc1ccccn1
measurement: > 16.9 µM
--
molecule: CCCCNC(=O)c1cc(-c2cccs2)on1
measurement: > 16.9 µM
--
molecule: Cc1ccc(/C=N/NC(=O)c2cccc(F)c2)cc1
measurement: > 16.9 µM
--
molecule: CC(C)c1ccc(NC(=O)/C=C/c2ccco2)cc1
measurement: > 17.2 µM
--
molecule: COC(=O)c1ccc(C(=O)Nc2ccccc2N)cc1
measurement: > 17.8 µM
--
molecule: CN(c1ccccc1)S(=O)(=O)c1cccc(C(=O)NCCc2ccc(O)c(O)c2)c1
measurement: 8.35 µM
--
molecule: CCCc1cc(C(=O)Nc2cc(C)ccc2O)no1
measurement: > 16.9 µM
--
molecule: O=C(N/N=C/c1cccc2ccccc12)c1ccc2c(c1)OCO2
measurement: > 16.9 µM
--
molecule: COc1cccc(/C=N\NC(=O)c2n[nH]c3c2CCC3)c1
measurement: > 16.6 µM
--
molecule: CC(C)c1ccc(/C=N\NC(=O)c2ccccc2)cc1
measurement: > 16.9 µM
--
molecule: O=C(N/N=C/c1ccc(O)c(O)c1)c1cccc(Cl)c1
measurement: > 16.9 µM
--
molecule: COc1ccccc1/C=N/Nc1nc(-c2ccccc2)cc(=O)[nH]1
measurement: > 16.9 µM
--
molecule: Oc1ccc(-c2cnc3c(Nc4ccc5[nH]ccc5c4)nccn23)cc1
measurement: > 16.9 µM
--
molecule: O=C(Nc1ccc2nc(NC(=O)C3CCCCC3)sc2c1)C1CCCCC1
measurement: > 10.2 µM
--
molecule: COc1cccc(C(=O)Nc2sc3c(c2C#N)CC(C)CC3)c1 (configuration not stated)
measurement: > 16.6 µM
--
molecule: O=C1NC(=Nc2ccccc2)S/C1=C/c1ccc(O)c(O)c1
measurement: > 15.4 µM
--
molecule: Cc1ccc(NC(=O)/C=C/c2ccco2)nc1
measurement: > 16.9 µM
--
molecule: C=CCNC(=O)c1cc(-c2ccc(F)cc2)on1
measurement: > 16.9 µM
--
molecule: Cc1ccc(C)c(/C=N/Nc2nncc3ccccc23)c1
measurement: > 17.1 µM
